Tested on: Plasmodium falciparum
Experiment: Antimalarial activity against chloroquine-sensitive Plasmodium falciparum 3D7
Format: functional, organism-based
PROPERTY_LABEL: IC50 (µg/mL)

[
  {
    "SMILES_DATA": "CCOC(=O)c1cn(Cc2cn(-c3ccc(F)cc3)nn2)c2cc(Cl)c(F)cc2c1=O",
    "ASSAY_SYSTEM": "Plasmodium falciparum",
    "VALUE": 4.3
  },
  {
    "SMILES_DATA": "CCOC(=O)c1cn(Cc2cn(CC(=O)OC)nn2)c2cc(Cl)c(F)cc2c1=O",
    "ASSAY_SYSTEM": "Plasmodium falciparum",
    "VALUE": 5.26
  },
  {
    "SMILES_DATA": "CCOC(=O)c1cn(Cc2c[nH]nn2)c2cc(Cl)c(F)cc2c1=O",
    "ASSAY_SYSTEM": "Plasmodium falciparum",
    "VALUE": 1.33
  },
  {
    "SMILES_DATA": "CCOC(=O)c1cn(CC#N)c2cc(Cl)c(F)cc2c1=O",
    "ASSAY_SYSTEM": "Plasmodium falciparum",
    "VALUE": 2.56
  },
  {
    "SMILES_DATA": "CCCCn1cc(C(=O)OCC)c(=O)c2cc(F)c(Cl)cc21",
    "ASSAY_SYSTEM": "Plasmodium falciparum",
    "VALUE": 6.96
  }
]
